Taken from patent US20140127212A1.

target.under.test: cynomolgus IgE (recombinant chimaeric D12 variable region and cynomolgus IgE constant region) (cynomolgus monkey (constant region); …)
Sequence (heavy, as listed by the source limits assumed, chain 1 of 2): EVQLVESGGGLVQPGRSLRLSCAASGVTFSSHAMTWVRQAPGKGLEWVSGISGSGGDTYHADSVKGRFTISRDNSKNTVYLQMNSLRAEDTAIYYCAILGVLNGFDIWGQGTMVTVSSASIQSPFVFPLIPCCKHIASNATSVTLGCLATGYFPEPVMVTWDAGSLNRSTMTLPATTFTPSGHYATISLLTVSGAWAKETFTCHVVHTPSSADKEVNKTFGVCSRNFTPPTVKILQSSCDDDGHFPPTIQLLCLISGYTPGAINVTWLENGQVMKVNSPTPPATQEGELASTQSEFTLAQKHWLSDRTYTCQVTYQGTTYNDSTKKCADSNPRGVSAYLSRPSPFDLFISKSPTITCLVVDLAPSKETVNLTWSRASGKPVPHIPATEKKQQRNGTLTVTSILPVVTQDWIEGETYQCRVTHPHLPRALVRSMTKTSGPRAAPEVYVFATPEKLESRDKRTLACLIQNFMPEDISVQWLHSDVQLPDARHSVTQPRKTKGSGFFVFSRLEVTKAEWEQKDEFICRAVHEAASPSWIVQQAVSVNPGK
Sequence (light, as listed by the source limits assumed, chain 2 of 2): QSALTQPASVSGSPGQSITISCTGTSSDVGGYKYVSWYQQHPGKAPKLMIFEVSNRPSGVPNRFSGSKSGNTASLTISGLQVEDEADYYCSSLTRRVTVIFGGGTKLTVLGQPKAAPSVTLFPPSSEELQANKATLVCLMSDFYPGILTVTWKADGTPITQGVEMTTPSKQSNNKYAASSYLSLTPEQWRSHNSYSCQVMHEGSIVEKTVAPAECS
assay.method.text: cell-based or functional assay
Quick rule for you: RBL-ER51 calcium signalling IC50 (nM), Cynomolgus IgE, geomean at 0.2 nM or higher means met, lower means not met.

Antibody 6 IgG (antibody, V domains shown, Whole human IgG (section 1.4, IgG1)) VH: QVQLVQSGAEVKKPGATVKLSCKVYGYIFTDYNIYWVRQAPGKGLEWMGLIDPDNGETFYAEKFQGRATMTADTSSDRAYMELTSLTFEDTATYYCATVMGKWIKGGYDYWGRGTLVTVSS VL: QSVLTQPPSVSGAPGQRVTISCTGSSSNIGAGYDVHWYQQLPGTAPKLLIYDNFNRPSGVPDRFSGSKSGTSASLAIIGLQTEDEADYYCQSYDSTMRHGPFGTGTKLTVL = not met
Antibody 23 IgG (antibody, V domains shown, Whole human IgG (section 1.4, IgG1)) VH: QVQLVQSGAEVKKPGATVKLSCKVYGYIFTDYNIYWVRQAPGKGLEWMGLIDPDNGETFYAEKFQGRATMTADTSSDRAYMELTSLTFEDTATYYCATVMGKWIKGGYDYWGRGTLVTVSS VL: QSVLTQPPSVSGAPGQRVTISCTGSSSNIGAGYDVHWYQQLPGTAPKLLIYDNFNRPSGVPDRFSGSKSGTSASLAIIGLQTEDEADYYCQSYDSHHLYSSFGTGTKLTVL = met
Antibody 13 IgG (antibody, V domains shown, Whole human IgG (section 1.4, IgG1)) VH: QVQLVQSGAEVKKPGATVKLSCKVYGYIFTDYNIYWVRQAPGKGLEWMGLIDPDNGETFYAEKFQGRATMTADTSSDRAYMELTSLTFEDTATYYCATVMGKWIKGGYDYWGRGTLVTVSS VL: QSVLTQPPSVSGAPGQRVTISCTGSSSNIGAGYDVHWYQQLPGTAPKLLIYDNFNRPSGVPDRFSGSKSGTSASLAIIGLQTEDEADYYCQSYDSNILYSPFGTGTKLTVL = met
Antibody 11 IgG (antibody, V domains shown, Whole human IgG (section 1.4, IgG1)) VH: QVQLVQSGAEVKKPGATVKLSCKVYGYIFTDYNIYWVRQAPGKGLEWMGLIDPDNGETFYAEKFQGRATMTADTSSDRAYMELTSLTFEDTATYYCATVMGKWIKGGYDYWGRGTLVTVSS VL: QSVLTQPPSVSGAPGQRVTISCTGSSSNIGAGYDVHWYQQLPGTAPKLLIYDNFNRPSGVPDRFSGSKSGTSASLAIIGLQTEDEADYYCQSYDSPTLTSPFGTGTKLTVL = not met

Okay, now this binder:
**Q:** Can Antibody 20 IgG (antibody, V domains shown, Whole human IgG (section 1.4, IgG1)) VH: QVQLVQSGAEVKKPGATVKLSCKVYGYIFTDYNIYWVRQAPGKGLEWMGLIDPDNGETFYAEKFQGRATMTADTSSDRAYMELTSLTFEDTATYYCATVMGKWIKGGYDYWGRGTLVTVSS VL: QSVLTQPPSVSGAPGQRVTISCTGSSSNIGAGYDVHWYQQLPGTAPKLLIYDNFNRPSGVPDRFSGSKSGTSASLAIIGLQTEDEADYYCQSYDSSTSSSPFGTGTKLTVL be said to have RBL-ER51 calcium signalling IC50 (nM), Cynomolgus IgE, geomean at or above 0.2 nM?
**A:** met
